# System: vCap cells
# assay.comment: Cell growth inhibition, CellTiter-Glo, 72 h
# Format: cell-based
# experimental.conditions: Homo sapiens, 72 h culture, mean of N=2
measurement.label: pIC50
Lab note: report pIC50 as minus log10 of the concentration in molar units, number only.

Task item: # input molecule: C=CS(=O)(=O)N[C@H]1CC[C@H](n2nc(N3CCCc4cc(-c5cnn(C)c5)c(C(F)F)cc43)c3c2CCN(C(=O)NC)C3)CC1 ; wanted: its pIC50
Reply: 9.00

Task item: Repeat with CC(=O)N1Cc2cc(C3CCN(Cc4ccc(CCOc5cccc6c5CN(C5CCC(=O)NC5=O)C6=O)cc4)CC3)cc(N3CCCc4cc(-c5cnn(C)c5)c(C(F)F)cc43)c2C1 (centres unmarked)
Reply: 9.72

Task item: Moving on to the next molecule: CNC(=O)N1CCc2cc(C3CCN(CCN4CCOC(CNc5cccc6c5C(=O)N(C5CCC(=O)NC5=O)C6=O)C4)CC3)cc(N3CCCc4cc(-c5cnn(C)c5)c(C(F)F)cc43)c2C1 (centres unmarked)
Reply: 9.71

Task item: Entry to check: CNC(=O)N1CCc2c(c(N3CCCc4cc(-c5cnn(C)c5)c(C(F)F)cc43)nn2C2CCN(C(=O)CCl)CC2)C1
Reply: 9.30

---

# Tested on: MM1S cells
# assay.comment: Cell growth inhibition, CellTiter-Glo, 72 h
# Type: cell-based
# experimental.conditions: Homo sapiens, MM1.S, 72 h culture, mean of N=2
Give IC50 for every item shown.
Hi! Could you send only the number? It should be in nM, unit omitted.

Task item: Please report the recorded IC50 for CC(=O)N1Cc2cc(C3CCN(CC4CCN(c5ccc6c(c5)n(C)c(=O)n6C5CCC(=O)NC5=O)CC4)CC3)cc(N3CCCc4cc(-c5cnn(C)c5)c(C(F)F)cc43)c2C1 (stereo not drawn) .
Reply: 0.07

Task item: And CC(=O)N1Cc2cc([C@H]3CC[C@@H](CN4Cc5cc6c(cc5C4)C(=O)N(C4CCC(=O)NC4=O)C6=O)CC3)cc(N3CCCc4cc(-c5cnn(C)c5)c(C(F)F)cc43)c2C1 (relative stereo) ?
Reply: 25

Task item: Same read-out for C=CS(=O)(=O)N1CCC(c2cc3c(c(N4CCCc5cc(-c6cnn(C)c6)c(C(F)F)cc54)c2)CN(C(C)=O)C3)CC1 ?
Reply: 68

---

# test.system: CBP bromodomain (Homo sapiens, UniProt Q92793)
# Sequence (Q92793 1085-1192 limits assumed): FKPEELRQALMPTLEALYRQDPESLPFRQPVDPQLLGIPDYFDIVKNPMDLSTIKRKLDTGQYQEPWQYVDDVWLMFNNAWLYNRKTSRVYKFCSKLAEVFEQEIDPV
# assay.comment: CBP AlphaLISA Assay Kit: binding of CBP bromodomain to acetylated histone substrate
# experimental.conditions: 30 min incubation with CBP and biotinylated substrate, N=2, unit inferred
Friendly reminder: IC50 below 7 nM is rule met, at or above is rule not met.

Task item: Report whether reported IC50 is lower than 7 nM (strictly) for C=CS(=O)(=O)N1CCC(c2cc3c(c(N4CCCc5cc(-c6cnn(C)c6)c(C(F)F)cc54)c2)CN(C(=O)NC)CC3)CC1
Reply: rule not met

Task item: Subsequent entry: C=CS(=O)(=O)N[C@H]1CC[C@@H](c2cc3c(c(N4CCCc5cc(-c6cnn(C)c6)c(C(F)F)cc54)c2)CN(C(C)=O)C3)CC1
Reply: rule not met

Task item: Please give the result for C=CC(=O)N[C@H]1CC[C@@H](c2cc3c(c(N4CCCc5cc(-c6cnn(C)c6)c(C(F)F)cc54)c2)CN(C(C)=O)C3)CC1 too.
Reply: rule met

Task item: Similarly, CC(=O)N1Cc2cc(C3CCN(C(=O)/C=C/CN(C)C)CC3)cc(N3CCCc4cc(-c5cnn(C)c5)c(C(F)F)cc43)c2C1 ?
Reply: rule met

Task item: Try C=CS(=O)(=O)N[C@H]1CC[C@H](c2cc3c(c(N4CCCc5cc(-c6cnn(C)c6)c(C(F)F)cc54)c2)CN(C(C)=O)C3)CC1 next.
Reply: rule not met

---

# Tested on: MM1S cells
# assay.comment: Cell growth inhibition, CellTiter-Glo, 72 h
# Assay type: cell-based
# experimental.conditions: Homo sapiens, MM1.S, 72 h culture, mean of N=2
Field: label. Allowed values: 1 (yes) (IC50 < 3 nM) or 0 (no) (IC50 >= 3 nM).

Task item: Consider CC(=O)N1Cc2cc([C@H]3CC[C@H](NC(=O)/C=C/CN(C)C)CC3)cc(N3CCCc4cc(-c5cnn(C)c5)c(C(F)F)cc43)c2C1 [Compound 1356] . Does its IC50 lie strictly below 3 nM?
Reply: 0 (no)

Task item: Please answer likewise for C=CS(=O)(=O)N1CCC(n2nc(N3CCCc4cc(-c5cnn(C)c5)c(C(F)F)cc43)c3c2CCN(C(=O)NC)C3)CC1 [Compound 1369]
Reply: 1 (yes)

Task item: Then this molecule: CC(=O)N1Cc2cc([C@H]3CC[C@H](CN4Cc5cc6c(cc5C4)C(=O)N(C4CCC(=O)NC4=O)C6=O)CC3)cc(N3CCCc4cc(-c5cnn(C)c5)c(C(F)F)cc43)c2C1 (relative stereo) [Compound 2083]
Reply: 0 (no)

Task item: For CC(=O)N1Cc2cc(C3CCN(Cc4ccc(COc5cccc6c5CN(C5CCC(=O)NC5=O)C6=O)cc4)CC3)cc(N3CCCc4cc(-c5cnn(C)c5)c(C(F)F)cc43)c2C1 (stereo not drawn) [Compound 2006] then?
Reply: 1 (yes)

Task item: Similarly, C=CC(=O)N[C@H]1CC[C@@H](c2cc3c(c(N4CCCc5cc(-c6cnn(C)c6)c(C(F)F)cc54)c2)CN(C(C)=O)C3)CC1 [Compound 1339] ?
Reply: 0 (no)
